# target-or-test-system: T1, cynomolgus PD-1 expressed on cells (cynomolgus monkey, UniProt B0LAJ3 25-288)
# T1 construct: also called CHO-S Cyno-PD-1; 293:cyPD1
# T1 sequence (B0LAJ3 entry or part of it limits assumed): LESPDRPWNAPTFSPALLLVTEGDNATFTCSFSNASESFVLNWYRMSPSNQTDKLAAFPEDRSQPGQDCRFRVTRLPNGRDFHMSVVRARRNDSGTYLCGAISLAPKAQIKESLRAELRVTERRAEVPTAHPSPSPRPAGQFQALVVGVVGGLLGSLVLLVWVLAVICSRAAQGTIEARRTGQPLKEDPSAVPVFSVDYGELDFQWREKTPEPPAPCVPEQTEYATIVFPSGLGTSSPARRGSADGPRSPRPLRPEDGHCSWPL
# procedure-summary: flow cytometry, HEK293 cyPD1
Would you mind telling me the reported EC50 of each entry?
Answers are plain numbers, in nM.

40B20 (antibody, V domains shown, used with CH1,2,3 and corresponding CL) VH: EVQLVESGGGLVQPGGSLRLSCAASGFTFSSYSMNWVRQAPGKGLQWVSYITSSSNTMYYADSVKGRFTISRDNAKNSLYLQMNSLRDEDTAVYYCASIVGAPFDYWGQGTLVTVSS VL: EIVMTQSPATLSVSPGERATLSCRASQSVSSSLAWYQQKPGQAPRLLIYGASTRATGIPARFSGSGSGTEFTLTISSLQSEDFAAYYCQQYNNWPFTFGPGTKVDIK: 0.0958
39F23 (antibody, V domains shown, used with CH1,2,3 and corresponding CL) VH: QVQLVESGGGVGQPGRSLRLSCAASGFTFSNYGMHWVRQAPGKGLEWVAVIWYDGSKKYYADSVKGRFTISRDNSKNTLYLQMNSLRVEDTAVYYCVGNSGHWGQGTLVTVSS VL: DIVMTQTPLSLPVTPGEPASISCRSSQSLLDSDDGNTYLDWYLQKPGQSPQLLIYTLSYRASGVPDRFSGSGSGTDFTLKISRVEAEDVGVYYCMQCIEFPHTFGGGTKVEIK: 0.0289
56H02 (antibody, V domains shown, used with CH1,2,3 and corresponding CL) VH: QVQLVQSGAEVKKPGASVKVSCKASGYTFTSYFMHWVRQAPGQGLEWMGLINPDGGNTDYAQKFQGRVTMTRDTSTSTVYMELSSLRSEDTAVYYCARDGNYYDSSGYYYPDAFDIWGQGTMVTVSS VL: SSELTQDPAVSVALGQTVRITCQGDSLRRFYASWYQQKPGQAPVIVIYGKDNRPSGTPDRFSGSTSGNTASLTITGAQAEDEADYYCNSRDSSGTHVVFGGGTKLTVL: 0.0881

Consider the additional binder presented here.
Exam item: Please look up its EC50: 20H02 (antibody, V domains shown, used with CH1,2,3 and corresponding CL) VH: EVLLVESGGGLVQPGGSLRLSCAASGFTFSSYSMNWVRQAPGKGLEWVSFISSSSPTLYYADSVKGRFTISRDNAKNSLYLQMNSLRDEDTAVYYCARQGLTPFDYWGQGTLVTVSS VL: EIVMTQSPATLSVFPGERATLSCRASQSVSSYLAWYQQKPGQAPRLLIYGASTRATGIPARVSGSGSGTEFILTISSLQSEDFAVYYCQQYNNWPYTFGQGTKLEIK
Marked response: 0.231
